# ASSAYED_TARGET: Aspergillus oryzae α-amylase (Aspergillus oryzae)
# ASSAY_PROCEDURE: biochemical
# MEASUREMENT_SETUP: read-out: α-Amylase Inhibition PI ± SEM% (percentage inhibition)
MEASUREMENT_NAME: inhibition at 50 µM

# count of solved cases: 6
MOLECULE: CC(C)(C)c1ccc(-c2cc(COc3c(-c4ccc(C(F)(F)F)cc4)oc4ccc(Cl)cc4c3=O)on2)cc1 [Compound 3f]
inhibition at 50 µM: 64.5%
//
MOLECULE: COc1ccc(-c2cc(COc3c(-c4ccc(C(F)(F)F)cc4)oc4ccc(Cl)cc4c3=O)on2)cc1 [Compound 3h]
inhibition at 50 µM: 93.5%
//
MOLECULE: O=c1c(OCc2cc(-c3ccccc3)no2)c(-c2ccc(C(F)(F)F)cc2)oc2ccc(Cl)cc12 [Compound 3a]
inhibition at 50 µM: 65.6%
//
MOLECULE: O=c1c(O)c(-c2ccc(C(F)(F)F)cc2)oc2ccc(Cl)cc12 [Compound 1]
inhibition at 50 µM: 75.2%
//
MOLECULE: COc1ccc(-c2cc(COc3c(-c4ccc(C(F)(F)F)cc4)oc4ccc(Cl)cc4c3=O)on2)cc1Br [Compound 3l]
inhibition at 50 µM: 70.4%
//
MOLECULE: Cc1ccc(-c2cc(COc3c(-c4ccc(C(F)(F)F)cc4)oc4ccc(Cl)cc4c3=O)on2)cc1 [Compound 3e]
inhibition at 50 µM: 65.4%

Next item in the queue.
Item under review: CCCCOc1ccc(-c2cc(COc3c(-c4ccc(C(F)(F)F)cc4)oc4ccc(Cl)cc4c3=O)on2)cc1Cl [Compound 3j] . Reported inhibition at 50 µM? 93.1%
